assay.context: siRNA; note: test system not given here
HELM strings list units from the 5' end as sugar, base in round brackets, then linkage (d deoxyribose, r ribose, m 2'-O-methyl, p phosphodiester). Strings are as the collection lists them, not checked against the first reports. ss, as = sense and antisense strand; [s4r] = 4'-thioribose; [fl2r] = 2'-fluoro
readout.label: target mRNA knockdown (%)
Reply with just the number (in %).

For the substance "RNA1{r(A)p.r(G)p.r(C)p.r(C)p.r(U)p.r(C)p.r(C)p.r(A)p.r(A)p.[fl2r](A)p.r(C)p.r(U)p.r(C)p.r(C)p.r(U)p.r(A)p.r(G)p.[fl2r](C)p.r(U)p.r(T)p.r(T)}|RNA2{r(A)p.r(G)p.r(C)p.[fl2r](U)p.r(A)p.r(G)p.r(G)p.r(A)p.r(G)p.r(U)p.r(U)p.r(U)p.r(G)p.r(G)p.r(A)p.r(G)p.r(G)p.r(C)p.r(U)p.r(T)p.r(T)}$$$RNA1{StrandType:ss}|RNA2{StrandType:as}$" , give its reported target mRNA knockdown.
69

For the substance "RNA1{[s4r](C)p.[s4r](G)p.r(U)p.r(A)p.r(C)p.r(G)p.r(C)p.r(G)p.r(G)p.r(A)p.r(A)p.r(U)p.r(A)p.r(C)p.r(U)p.r(U)p.r(C)p.r(G)p.r(A)p.r(T)p.r(T)}|RNA2{r(U)p.r(C)p.r(G)p.r(A)p.r(A)p.r(G)p.r(U)p.r(A)p.r(U)p.r(U)p.r(C)p.r(C)p.r(G)p.r(C)p.r(G)p.r(U)p.r(A)p.r(C)p.r(G)p.r(T)p.r(T)}$$$RNA1{StrandType:ss}|RNA2{StrandType:as}$" , give its reported target mRNA knockdown.
95.5

====

assay.context: siRNA
HELM strings list units from the 5' end as sugar, base in round brackets, then linkage (d deoxyribose, r ribose, m 2'-O-methyl, p phosphodiester). Strings are as the collection lists them, not checked against the first reports. ss, as = sense and antisense strand; [una] = unlocked nucleic acid
readout.label: target mRNA knockdown (%)
Reply with just the number (in %).

Completed entries (count: 2):
- substance: "RNA1{r(G)p.r(C)p.r(U)p.r(G)p.r(A)p.r(G)p.r(G)p.r(A)p.r(A)p.r(A)p.r(G)p.r(G)p.r(G)p.r(A)p.r(C)p.r(A)p.r(U)p.r(C)p.r(U)p.r(T)p.r(T)}|RNA2{r(A)p.r(G)p.m(A)p.m(U)p.r(G)p.r(U)p.r(C)p.r(C)p.r(C)p.r(U)p.r(U)p.r(U)p.r(C)p.r(C)p.r(U)p.r(C)p.r(A)p.r(G)p.r(C)p.r(T)p.r(T)}$$$RNA1{StrandType:ss}|RNA2{StrandType:as}$"
  units.text: "%"
  target mRNA knockdown: 78
- substance: "RNA1{m(A)p.r(C)p.m(G)p.r(U)p.m(C)p.r(A)p.m(C)p.r(C)p.m(G)p.r(A)p.m(G)p.r(G)p.m(A)p.r(G)p.m(A)p.r(A)p.m(G)p.r(U)p.m(A)p.r(T)p.r(T)}|RNA2{r(U)p.r(A)p.r(C)p.r(U)p.r(U)p.r(C)p.r(U)p.r(C)p.r(C)p.r(U)p.r(C)p.m(G)p.m(G)p.r(U)p.r(G)p.r(A)p.r(C)p.m(G)p.r(U)p.r(T)p.r(T)}$$$RNA1{StrandType:ss}|RNA2{StrandType:as}$"
  units.text: "%"
  target mRNA knockdown: 31

From here, focus on the item given below.
For the substance "RNA1{r(G)p.r(U)p.r(A)p.r(U)p.r(G)p.r(A)p.r(C)p.r(C)p.r(G)p.r(A)p.r(C)p.r(U)p.r(A)p.r(C)p.r(G)p.r(C)p.r(G)p.r(U)p.r(A)p.r(T)p.r(T)}|RNA2{r(U)p.r(U)p.r(C)p.[una](A)p.r(G)p.r(U)p.r(G)p.r(U)p.r(G)p.r(A)p.r(U)p.r(G)p.r(A)p.r(C)p.r(A)p.r(C)p.r(U)p.r(U)p.r(G)p.r(T)p.r(T)}$$$RNA1{StrandType:ss}|RNA2{StrandType:as}$" , give its reported target mRNA knockdown.
94
